Cited source: PubChem BioAssay AID1508600

# Measurement notes: Components of the Cytosolic LPS Sensing Pathway: Gene Identification via Genome-wide siRNA Screen
# Assay conditions: RAW264.7 macrophages, IL-1a HTRF, actives lie on both sides, screened at 100 nM (by protocol), cells primed 5 h with Pam3CSK4 first
Hit rate of the full screen: of about 53,000 sequences, about 3,700 (7%) were called active. Shown is part of a subset that was picked to be rich in actives.
Response field class: enum, chosen by comparing z-score against group A: < -0.8; group B: ≥ -0.8 and < 0.7; group C: ≥ 0.7

# Residue string, Group label
rows = [
    ("GGUUGUUGCGCAAAUUUAATT against Vmn2r7", "group C"),
    ("UGCUGGUAGACCUAGUAGCTT against Olfr1137", "group A"),
    ("GGAGCUCCUGAACAGGAUCTT against Gpr26", "group C"),
    ("GGGACAAUUCUGGAUUAAATT against 9330155M09Rik", "group B"),
    ("GGGUCUGGUUCUGUAACCATT against Pou4f3", "group A"),
    ("GGAGAAAGAUGGCAUAAUGTT against Slitrk6", "group B"),
    ("GGCCAUUAUUCGUGAGUUGTT against Armc10", "group C"),
    ("GGAGAACAAAGUAUUGGUGTT against Cacna1f", "group B"),
    ("GCGAGAUUGGUGCAAAACUTT against Grem1", "group A"),
    ("GGCUUCAUUCGUAGGCCAUTT against Smcr8", "group C"),
    ("GGAUAAAGAAGGUAUUCUUTT against Mccc1", "group A"),
    ("GGAUACAAAUGAAAGCUUATT against Zfp354b", "group B"),
    ("CGGAAGAAGCCAGUUAAGATT against Apol9b", "group B"),
    ("GCAAGUGUAGAUAAAGUAUTT against Msi2", "group C"),
    ("GGAAGACAUUCACGAUUGUTT against Deptor", "group B"),
    ("GCAGCUCCUUUAUACCCACTT against Mxra7", "group A"),
    ("GCACUAAGCUUUAUUCAUCTT against Mast2", "group B"),
    ("GGAGGACUCAGCACUCUUUTT against E130311K13Rik", "group B"),
    ("GCAUGUGAUUACCUUUGUATT against Btbd10", "group B"),
    ("GGCUCAGAAACAACAGGCUTT against Sh2d3c", "group A"),
    ("GGUCUACGCUAUCCUAGUUTT against Grin1", "group A"),
    ("CCAUCUUGAAGAUUCGUUCTT against Olfr486", "group A"),
    ("GGAAAGAGAAAAACAACCATT against Cngb3", "group B"),
    ("GGAUGUACAUUCUACCUAUTT against Bap1", "group B"),
    ("AGUGAAACUAAACUGGAGUTT against 2610318N02Rik", "group C"),
    ("CCCUAUACAGCGUACCCAATT against Eya2", "group B"),
    ("GGAGAGAAAUUUGACACUCTT against Mgrn1", "group B"),
    ("GCCCUGAACUACCUAGAAATT against Alg5", "group C"),
    ("GGAUGGAGAGAACUACUUATT against Gltpd2", "group C"),
    ("GACUGAGCUUCUGUGAUGGTT against Olfr921", "group A"),
    ("GGAAAUCUCAGAAAUCAAATT against Pmf1", "group A"),
    ("CGUAUUAUCUGAGUGAACATT against Fth1", "group A"),
    ("GGUUCUGGAGCAAAUCCACTT against Styk1", "group C"),
    ("GGAUCUUAUUAUUUGAUCCTT against Mettl15", "group B"),
    ("GCAGUAGUCUUGGAAUUAATT against Bhlhe41", "group C"),
]
